Experiment: qHTS assay for small molecule disruptors of the mitochondrial membrane potential - cell viability (AID 720634);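 further: human HepG2 liver cancer cells; nearly all actives have a fitted effect of over 20% in size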
Settings: HepG2 viability, ATP luminescence (CellTiter-Glo), 1 h; series mostly up to 83.2 µM
Method: U.S. Tox21 Program National Center for Advancing Translational Sciences [NCATS] NIH Chemical Genomics Center [NCGC] U.S. Environmental Protection Agency [EPA] National Institutes of Environmental Health Sciences [NIEHS] National Toxicology Program [NTP] […] Measuring MMP in living cells is commonly used to assess the effect of chemicals on mitochondrial function; decreases in MMP can be detected using lipophilic cationic fluorescent dyes. […] The cytotoxicity was measured in the same assay well of MMP assay. […]
Results filed as inconclusive are left out. Activity calls are given as the source filed them. The call rests on the fitted dose curve.
measureName: outcome

[
  {
    "compound": "CC(=O)Nc1ccc(CC(=O)O)cc1",
    "measureName": "outcome",
    "experimentalValue": "inactive"
  },
  {
    "compound": "Cc1cc(C)cc(O)c1",
    "measureName": "outcome",
    "experimentalValue": "inactive"
  },
  {
    "compound": "COc1ccc(N)c(OC)c1",
    "measureName": "outcome",
    "experimentalValue": "inactive"
  },
  {
    "compound": "CC(CN1c2ccccc2Sc2ccccc21)N(C)C (stereo not drawn)",
    "measureName": "outcome",
    "experimentalValue": "inactive"
  },
  {
    "compound": "CCCCCCCCC(=O)O",
    "measureName": "outcome",
    "experimentalValue": "inactive"
  },
  {
    "compound": "OCC(CO)(CO)CO",
    "measureName": "outcome",
    "experimentalValue": "inactive"
  },
  {
    "compound": "O=c1c(O)c(-c2ccc(O)c(O)c2)oc2cc(O)cc(O)c12",
    "measureName": "outcome",
    "experimentalValue": "inactive"
  },
  {
    "compound": "CCCCCNCCCCC",
    "measureName": "outcome",
    "experimentalValue": "inactive"
  }
]

Query Nc1cccc(N)n1 yields outcome of inactive

In plain terms, CC1(C)[C@@H](O[C@H]2O[C@H](C(=O)O)[C@@H](O)[C@H](O)[C@H]2O[C@@H]2O[C@H](C(=O)O)[C@@H](O)[C@H](O)[C@H]2O)CC[C@]2(C)[C@H]3C(=O)C=C4[C@@H]5C[C@@](C)(C(=O)O)CC[C@]5(C)CC[C@@]4(C)[C@]3(C)CC[C@@H]12 has a documented outcome of inactive

Entry O=C(O)C1=NN(c2ccc(S(=O)(=O)O)cc2)C(=O)C1 , outcome reported as inactive

// outcome value for CC/C(C)=N/O : inactive
